Values compiled from patent US5834461A.

- EXPERIMENTAL TARGET: oxytocin receptors (rat uterus membranes) (Rattus norvegicus, UniProt P70536)
- Construct: The resulting pellet containing the oxytocin receptors is resuspended; from tissue; host or cells: uterus membranes of DES-treated female Sprague-Dawley rats
- Sequence (P70536 whole entry): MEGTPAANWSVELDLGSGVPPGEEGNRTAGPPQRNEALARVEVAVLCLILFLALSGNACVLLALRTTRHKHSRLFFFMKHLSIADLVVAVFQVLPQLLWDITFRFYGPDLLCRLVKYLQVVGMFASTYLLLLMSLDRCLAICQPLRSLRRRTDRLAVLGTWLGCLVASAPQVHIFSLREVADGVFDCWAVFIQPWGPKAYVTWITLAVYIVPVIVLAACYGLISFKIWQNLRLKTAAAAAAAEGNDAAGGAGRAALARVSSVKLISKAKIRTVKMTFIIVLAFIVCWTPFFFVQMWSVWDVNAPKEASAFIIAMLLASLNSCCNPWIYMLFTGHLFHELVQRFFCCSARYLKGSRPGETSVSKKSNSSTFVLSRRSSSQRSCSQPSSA
- EXPERIMENT DESCRIPTION: Oxytocin Receptor Binding
- Set-up: species or system female Sprague-Dawley rats
- PROTOCOL CONDITIONS: second part of Table V
pIC50: −log10 of the molar value.
A collection of compounds and their measured pIC50

COMPOUND | pIC50
O=C(Nc1ccc(C(=O)N2CCc3c[nH]nc3-c3ccccc32)cc1)c1ccc(Cl)cc1Cl [Example 583] | 6.48
Cc1ccc(F)cc1C(=O)Nc1ccc(C(=O)N2CCc3c[nH]nc3-c3ccccc32)cc1 [Example 584] | 6.77
CN(C)CC(=O)Nc1ccc(C(=O)N2Cc3ccccc3Cc3ccccc32)cc1 [Example 454] | 5.60
CC(C)COc1ccc([N+](=O)[O-])cc1C(=O)Nc1ccc(C(=O)N2Cc3ccccc3Cc3ccccc32)cc1 [Example 453] | 5.48
Cc1c(F)cccc1C(=O)Nc1ccc(C(=O)N2CCc3c[nH]nc3-c3ccccc32)c(Cl)c1 [Example 582] | 6.56
Cc1nc2c(s1)CCN(C(=O)c1ccc(NC(=O)c3cc(F)ccc3C)cc1)c1ccccc1-2 [Example 534] | 6.03
Cc1ccc(F)cc1C(=O)Nc1ccc(C(=O)N2CCc3c[nH]nc3-c3ccccc32)c(Cl)c1 [Example 581] | 6.32
Cc1ccccc1C(=O)Nc1ccc(C(=O)N2CCc3c[nH]nc3-c3ccccc32)cc1 [Example 585] | 6.60
Cc1nc2c(s1)CCN(C(=O)c1ccc(NC(=O)c3ccc(Cl)cc3Cl)cc1)c1ccccc1-2 [Example 455] | 5.96
